src = patent US6274557A

# ASSAY_SYSTEM: neuronal nitric oxide synthase (nNOS) from bovine brain (Bos taurus, UniProt A0A3Q1M6M2)
pIC50: −log10 of the molar value.
Reported pIC50 is given for each of the following molecules.
METRIC_NAME: pIC50

>  <MOLECULE>
CNC(=N)NCCC[C@H](N)C(=O)O [methyl, N^ω -methyl-L-arginine, reference compound]

>  <ASSAY_SYSTEM>
neuronal nitric oxide synthase (nNOS) from bovine brain (Bos taurus, UniProt A0A3Q1M6M2)

>  <OBSERVED_MEASUREMENT>
5.00

$$$$
>  <MOLECULE>
CCNC(=N)NCCC[C@H](N)C(=O)O [ethyl, N^ω -ethyl-L-arginine, reference compound]

>  <ASSAY_SYSTEM>
neuronal nitric oxide synthase (nNOS) from bovine brain (Bos taurus, UniProt A0A3Q1M6M2)

>  <OBSERVED_MEASUREMENT>
4.80

$$$$

---

# ASSAY_SYSTEM: recombinant murine macrophage nitric oxide synthase (iNOS) (Mus musculus)
# ASSAY_PROTOCOL: Hemoglobin capture assay of nitric oxide formation, iNOS
# CONDITION: read-out: Ki iNOS; Table 2, Dixon plots; ^a = uncompetitive inhibition
pKi: −log10 of the molar value. Peptide text beside a SMILES is read from it.

>  <COMPOUND>
COC(=O)[C@H](CCCNC(=N)N[N+](=O)[O-])NC(=O)[C@H](N)Cc1ccccc1 [compound 11, D-Phe-L-Arg^NO2 -OMe] (HELM PEPTIDE1{[dF].[N=C(NCCC[C@H](N[*:1])C(=O)[*:2])N[N+](=O)[O-]].[CO[*:1]]}$$$$V2.0)

>  <pKi>
2.92

$$$$
>  <COMPOUND>
N=C(NCCC[C@H](N)C(=O)N[C@@H](Cc1ccccc1)C(=O)OCc1ccccc1)N[N+](=O)[O-] [compound 5, L-Arg^NO2 -L-Phe-OBn]

>  <pKi>
4.74

$$$$
>  <COMPOUND>
N=C(NCCC[C@H](NC(=O)[C@@H](N)Cc1ccccc1)C(=O)OCc1ccccc1)N[N+](=O)[O-] [compound 6, L-Phe-L-Arg^NO2 -OBn] (HELM PEPTIDE1{F.[N=C(NCCC[C@H](N[*:1])C(=O)[*:2])N[N+](=O)[O-]].[c1ccc(CO[*:1])cc1]}$$$$V2.0)

>  <pKi>
4.35

$$$$
>  <COMPOUND>
N=C(NCCC[C@H](NC(=O)[C@@H](N)Cc1ccccc1)C(=O)O)N[N+](=O)[O-] [compound 2, L-Phe-L-Arg^NO2] (HELM PEPTIDE1{F.[N=C(NCCC[C@H](N[*:1])C(=O)O)N[N+](=O)[O-]]}$$$$V2.0)

>  <pKi>
4.03

$$$$

---

# ASSAY_SYSTEM: neuronal nitric oxide synthase (nNOS) from bovine brain (Bos taurus)
# ASSAY_PROTOCOL: Hemoglobin capture assay of nitric oxide formation, nNOS
# CONDITION: read-out: Ki nNOS; Table 2, Dixon plots
Peptide text beside a SMILES is read from it.
Sorting guide: entries reporting Ki beneath 100 µM go in the Met pile, the rest go in the Not met pile.

>  <COMPOUND>
N=C(NCCC[C@H](N)C(=O)N[C@@H](Cc1ccccc1)C(=O)O)N[N+](=O)[O-]

>  <ASSAY_SYSTEM>
neuronal nitric oxide synthase (nNOS) from bovine brain (Bos taurus)

>  <CLASS_NAME>
Met

$$$$
>  <COMPOUND>
COC(=O)[C@@H](Cc1ccccc1)NC(=O)[C@@H](N)CCCNC(=N)N[N+](=O)[O-]

>  <ASSAY_SYSTEM>
neuronal nitric oxide synthase (nNOS) from bovine brain (Bos taurus)

>  <CLASS_NAME>
Met

$$$$
>  <COMPOUND>
COC(=O)[C@H](CCCNC(=N)N[N+](=O)[O-])NC(=O)[C@H](N)Cc1ccccc1 [compound 11, D-Phe-L-Arg^NO2 -OMe] (HELM PEPTIDE1{[dF].[N=C(NCCC[C@H](N[*:1])C(=O)[*:2])N[N+](=O)[O-]].[CO[*:1]]}$$$$V2.0)

>  <ASSAY_SYSTEM>
neuronal nitric oxide synthase (nNOS) from bovine brain (Bos taurus)

>  <CLASS_NAME>
Not met

$$$$
>  <COMPOUND>
N=C(NCCC[C@H](NC(=O)[C@@H](N)Cc1ccccc1)C(=O)O)N[N+](=O)[O-] [compound 2, L-Phe-L-Arg^NO2] (HELM PEPTIDE1{F.[N=C(NCCC[C@H](N[*:1])C(=O)O)N[N+](=O)[O-]]}$$$$V2.0)

>  <ASSAY_SYSTEM>
neuronal nitric oxide synthase (nNOS) from bovine brain (Bos taurus)

>  <CLASS_NAME>
Not met

$$$$
>  <COMPOUND>
N=C(NCCC[C@H](NC(=O)[C@@H](N)Cc1ccccc1)C(=O)OCc1ccccc1)N[N+](=O)[O-] [compound 6, L-Phe-L-Arg^NO2 -OBn] (HELM PEPTIDE1{F.[N=C(NCCC[C@H](N[*:1])C(=O)[*:2])N[N+](=O)[O-]].[c1ccc(CO[*:1])cc1]}$$$$V2.0)

>  <ASSAY_SYSTEM>
neuronal nitric oxide synthase (nNOS) from bovine brain (Bos taurus)

>  <CLASS_NAME>
Not met

$$$$

---

# ASSAY_SYSTEM: recombinant bovine endothelial nitric oxide synthase (eNOS) (Bos taurus, UniProt P29473)
# ASSAY_PROTOCOL: Hemoglobin capture assay of nitric oxide formation, eNOS
METRIC_NAME: IC50 (µM)

>  <MOLECULE>
CCNC(=N)NCCC[C@H](N)C(=O)O [ethyl, N^ω -ethyl-L-arginine, reference compound]

>  <METRIC_NAME>
IC50

>  <OBSERVED_MEASUREMENT>
9.5

$$$$

---

# ASSAY_SYSTEM: UniProt A0A3Q1M6M2
# ASSAY_PROTOCOL: Hemoglobin capture assay of nitric oxide formation, nNOS
# CONDITION: Table 2 dipeptides; nNOS over eNOS
Peptide text beside a SMILES is read from it.
# binarize nNOS/eNOS selectivity: threshold 6 inclusive, high side 1, low side 0

>  <MOLECULE>
COC(=O)[C@@H](Cc1ccccc1)NC(=O)[C@@H](N)CCCNC(=N)N[N+](=O)[O-]

>  <CLASS_NAME>
0

$$$$
>  <MOLECULE>
COC(=O)[C@H](CCCNC(=N)N[N+](=O)[O-])NC(=O)[C@@H](N)Cc1ccccc1 [compound 4, L-Phe-L-Arg^NO2 -OMe] (HELM PEPTIDE1{F.[N=C(NCCC[C@H](N[*:1])C(=O)[*:2])N[N+](=O)[O-]].[CO[*:1]]}$$$$V2.0)

>  <CLASS_NAME>
0

$$$$
>  <MOLECULE>
COC(=O)[C@H](Cc1ccccc1)NC(=O)[C@@H](N)CCCNC(=N)N[N+](=O)[O-]

>  <CLASS_NAME>
1

$$$$
>  <MOLECULE>
N=C(NCCC[C@H](N)C(=O)N[C@@H](Cc1ccccc1)C(=O)O)N[N+](=O)[O-]

>  <CLASS_NAME>
1

$$$$
>  <MOLECULE>
COC(=O)[C@H](CCCNC(=N)N[N+](=O)[O-])NC(=O)[C@H](N)Cc1ccccc1 [compound 11, D-Phe-L-Arg^NO2 -OMe] (HELM PEPTIDE1{[dF].[N=C(NCCC[C@H](N[*:1])C(=O)[*:2])N[N+](=O)[O-]].[CO[*:1]]}$$$$V2.0)

>  <CLASS_NAME>
1

$$$$

---

Reported nNOS/iNOS selectivity is given for each of the following compounds.
# ASSAY_SYSTEM: neuronal nitric oxide synthase (nNOS) from bovine brain (Bos taurus, UniProt A0A3Q1M6M2)
# ASSAY_PROTOCOL: Hemoglobin capture assay of nitric oxide formation, nNOS
# CONDITION: Table 2 dipeptides; in favor of nNOS over iNOS
Peptide text beside a SMILES is read from it.

>  <COMPOUND>
COC(=O)[C@H](Cc1ccccc1)NC(=O)[C@H](N)CCCNC(=N)N[N+](=O)[O-]

>  <nNOS/iNOS selectivity>
22.1

$$$$
>  <COMPOUND>
N=C(NCCC[C@H](N)C(=O)N[C@@H](Cc1ccccc1)C(=O)O)N[N+](=O)[O-]

>  <nNOS/iNOS selectivity>
8.9

$$$$
>  <COMPOUND>
COC(=O)[C@H](Cc1ccccc1)NC(=O)[C@@H](N)CCCNC(=N)N[N+](=O)[O-]

>  <nNOS/iNOS selectivity>
3.2

$$$$
>  <COMPOUND>
N=C(NCCC[C@H](NC(=O)[C@@H](N)Cc1ccccc1)C(=O)O)N[N+](=O)[O-] [compound 2, L-Phe-L-Arg^NO2] (HELM PEPTIDE1{F.[N=C(NCCC[C@H](N[*:1])C(=O)O)N[N+](=O)[O-]]}$$$$V2.0)

>  <nNOS/iNOS selectivity>
0.66

$$$$
>  <COMPOUND>
COC(=O)[C@@H](Cc1ccccc1)NC(=O)[C@H](N)CCCNC(=N)N[N+](=O)[O-]

>  <nNOS/iNOS selectivity>
43.3

$$$$
>  <COMPOUND>
N=C(NCCC[C@@H](NC(=O)[C@H](N)Cc1ccccc1)C(=O)O)N[N+](=O)[O-] [compound 13, D-Phe-D-Arg^NO2] (HELM PEPTIDE1{[dF].[N=C(NCCC[C@@H](N[*:1])C(=O)O)N[N+](=O)[O-]]}$$$$V2.0)

>  <nNOS/iNOS selectivity>
800

$$$$
>  <COMPOUND>
COC(=O)[C@H](CCCNC(=N)N[N+](=O)[O-])NC(=O)[C@@H](N)Cc1ccccc1 [compound 4, L-Phe-L-Arg^NO2 -OMe] (HELM PEPTIDE1{F.[N=C(NCCC[C@H](N[*:1])C(=O)[*:2])N[N+](=O)[O-]].[CO[*:1]]}$$$$V2.0)

>  <nNOS/iNOS selectivity>
0.55

$$$$
>  <COMPOUND>
COC(=O)[C@@H](CCCNC(=N)N[N+](=O)[O-])NC(=O)[C@@H](N)Cc1ccccc1 [compound 10, L-Phe-D-Arg^NO2 -OMe] (HELM PEPTIDE1{F.[N=C(NCCC[C@@H](N[*:1])C(=O)[*:2])N[N+](=O)[O-]].[CO[*:1]]}$$$$V2.0)

>  <nNOS/iNOS selectivity>
83.3

$$$$
>  <COMPOUND>
COC(=O)[C@H](CCCNC(=N)N[N+](=O)[O-])NC(=O)[C@H](N)Cc1ccccc1 [compound 11, D-Phe-L-Arg^NO2 -OMe] (HELM PEPTIDE1{[dF].[N=C(NCCC[C@H](N[*:1])C(=O)[*:2])N[N+](=O)[O-]].[CO[*:1]]}$$$$V2.0)

>  <nNOS/iNOS selectivity>
3

$$$$
>  <COMPOUND>
COC(=O)[C@@H](Cc1ccccc1)NC(=O)[C@@H](N)CCCNC(=N)N[N+](=O)[O-]

>  <nNOS/iNOS selectivity>
1.1

$$$$
>  <COMPOUND>
N=C(NCCC[C@H](N)C(=O)N[C@@H](Cc1ccccc1)C(=O)OCc1ccccc1)N[N+](=O)[O-]

>  <nNOS/iNOS selectivity>
0.33

$$$$
>  <COMPOUND>
N=C(NCCC[C@H](NC(=O)[C@@H](N)Cc1ccccc1)C(=O)OCc1ccccc1)N[N+](=O)[O-] [compound 6, L-Phe-L-Arg^NO2 -OBn] (HELM PEPTIDE1{F.[N=C(NCCC[C@H](N[*:1])C(=O)[*:2])N[N+](=O)[O-]].[c1ccc(CO[*:1])cc1]}$$$$V2.0)

>  <nNOS/iNOS selectivity>
0.41

$$$$
